system: Escherichia coli TOP10; experiment: shrunken log2 fold change of peptide-encoding DNA abundance (4.5 h post-induction vs induction); higher = less antimicrobial activity (less host growth inhibition); details: time post-induction: 4.5 h; library: site-saturation at positions 5, 18, 19, 20
Experimental endpoint: shrunken log2 fold change
Answer with a number only.

INPUT: Param readout= shrunken log2 fold change; system= Escherichia coli TOP10; entry= RRIRYRPPRLPRPRPRPHYVPRP ; returns value.
OUTPUT: -0.208

INPUT: Param readout= shrunken log2 fold change; system= Escherichia coli TOP10; entry= RRIRSRPPRLPRPRPRPYCHPRP ; returns value.
OUTPUT: -0.532

INPUT: Param readout= shrunken log2 fold change; system= Escherichia coli TOP10; entry= RRIRARPPRLPRPRPRPYNRPRP ; returns value.
OUTPUT: -0.186

INPUT: Param readout= shrunken log2 fold change; system= Escherichia coli TOP10; entry= RRIRERPPRLPRPRPRPNMNPRP ; returns value.
OUTPUT: -0.808

INPUT: Param readout= shrunken log2 fold change; system= Escherichia coli TOP10; entry= RRIRDRPPRLPRPRPRPNRVPRP ; returns value.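 Also: peptides expressed intracellularly from a pBAD plasmid library in pooled LB shake-flask culture, induced with 0.3% L-arabinose, DNA abundance read by NGS, three biological replicates, DESeq2 with apeglm shrinkage.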
OUTPUT: -0.023
